- test_details: modulators of HCV replicon luciferase signal, primary screen, HCV replication inhibitor project, Huh7 cells, luciferase reporter (AID 1109);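 further: huh7 hepatoma cells harbouring a luciferase neomycin HCV replicon reporter; luciferase luminescence as measure of HCV replicon replication; test concentration not given here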
- condition_info: 48 h, higher = more signal
endpoint: z-score
Answers are plain numbers.

Cc1ccc(S[C@]2(C(=O)NC3CC3)CC(=O)N(C3Cc4ccccc4C3)[C@@H]2c2ccc(CO)cc2)cc1; -1.08

Could you report z-score for every entry in the following list?
1. COc1ccc(CCN2C(=O)[C@@]3(c4ccc([N+](=O)[O-])cc4)CC(=O)N(C4CCCCC4)[C@@H]3c3ccc(CO)cc32)cc1
2. CC(C)C[C@@H]1NC(=O)[C@H]2C[C@@H](C(=O)NCCCCCCN(C)C)[C@@H](c3ccc(O)cc3)N2C1=O
3. C=CCOC(=O)[C@H]1[C@@H]2C(=O)O[C@@H](c3ccccc3)[C@@H](c3ccccc3)N2[C@@H](c2ccc(OCCOC(=O)[C@@H]3C[C@@H]4C(=O)N[C@@H](CCCC[N+](C)(C)C)C(=O)N4[C@@H]3c3ccc(O)cc3)cc2)[C@]12C(=O)Nc1ccccc12
4. CCOC(=O)[C@H]1C/C=C/C[C@H](C(=O)OCC)C(=O)O[C@H]2[C@@H](OC)O[C@H](CO)[C@@H](OC(=O)Nc3ccc(C#N)cc3)[C@@H]2OC1=O
5. C=C(COC)/C(=C/C[C@@H](OC(C)=O)c1ccc(OCCO)cc1)c1cc(C(=O)OC)ccc1OC
6. CC(C)N1C(=O)c2ccccc2[C@](C)(C(=O)NCc2ccccc2)[C@@H]1c1ccc(CO)cc1

[0.431, 0.414, -1.11, -3.6, -1.51, 0.0554]

====

Provide the recorded composite z-score for the entries that follow.
- target: Fibroblast growth factor 10 (Homo sapiens)
- test_details: FGF10 binders on small-molecule microarrays, primary screen, biochemical, small-molecule microarray, 635 nm fluorescence (AID 1102)
- condition_info: FGF10 binding, fluorescence 635 nm, higher = more signal
Numbers only.

Example cases with answers are listed next.
COc1ccc([C@H]2OC[C@@H]3CC4(CC=CC4)C(=O)N32)cc1; 0.93
COCCOC(=O)N1C(=O)[C@@]2(c3cc(C#CC4=CCCCC4)ccc31)[C@H](C(=O)N1CCc3cc(OC)c(OC)cc3C1)[C@H]1C(=O)O[C@H](c3ccccc3)[C@H](c3ccccc3)N1[C@@H]2c1ccc(OCCO)cc1; 1.3
C=CCOC(=O)[C@H]1[C@@H]2C(=O)O[C@@H](c3ccccc3)[C@@H](c3ccccc3)N2[C@@H](c2ccc(OCCOC(=O)[C@@H]3C[C@@H]4C(=O)N[C@@H](CCCCN(C)C)C(=O)N4[C@@H]3c3ccc(O)cc3)cc2)[C@]12C(=O)Nc1ccc(I)cc12; 0.735
CN1C(=O)C2C=CC(C(O)c3ccccc3)N(Nc3ccccc3)C2C1=O (centres undefined); -0.678
O=C1OCCC/C=C\[C@H]2OC34C=CCN(Cn5nnc6ccccc65)C(=O)[C@H]3N(CCCCCCO)C(=O)[C@@H]4C12 (some centres undefined); -1.41

Could you report composite z-score for every entry in the following list?
1. Cc1ccc(S[C@]2(C(=O)NCC(F)(F)F)CC(=O)N(C(C)C)[C@@H]2c2ccc(CO)cc2I)cc1
2. CN1C(=O)C2C=CC(C(O)C3CC=CCC3)N(NC(=O)OC(C)(C)C)C2C1=O (centres undefined)
3. C=CCOC(=O)[C@H]1[C@@H]2C(=O)O[C@@H](c3ccccc3)[C@@H](c3ccccc3)N2[C@@H](c2ccc(OCCOC(=O)[C@@H]3C[C@@H]4C(=O)N5CCC[C@H]5C(=O)N4[C@@H]3c3cccc(OCCO)c3)cc2)[C@]12C(=O)Nc1ccccc12

1: 0.203; 2: 0.796; 3: 1.12

Could you report composite z-score for every entry in the following list?
1. O=C1O[C@@H](c2ccccc2)[C@@H](c2ccccc2)N2[C@@H](c3ccccc3OCCO)[C@]3(C(=O)Nc4ccc(C#CC5=CCCCC5)cc43)[C@@H](C(=O)Nc3nc4ccccc4s3)[C@H]12
2. NCCCCCNC(=O)[C@@H]1C[C@@H]2C(=O)N[C@@H](Cc3ccccc3)C(=O)N2[C@@H]1c1cccc(OCCO)c1
3. CC(C)N1C(=O)[C@@]2(Cc3ccccc31)c1ccccc1C(=O)N(C1CCCCC1)[C@H]2c1ccc(CO)cc1
4. C=CCN1C(=O)[C@@]2(O[C@@H](CCO)[C@H]([Si](C)(C)c3ccc(OC)cc3)[C@H]2C)c2cc(NC(=O)c3ccc(OC)cc3)ccc21

[1.32, 0.519, 0.206, 1.09]

Could you report composite z-score for every entry in the following list?
1. C=C/C=C/[C@H]1C(=C)CN([C@@H](Cc2ccccc2)C(=O)OC)[C@@H]1[C@H](O)Cc1ccccc1
2. C=CCN(Cc1ccccc1)C(=O)C(c1cccs1)N(CCOCCO)C(=O)/C=C\C(=O)O (centres undefined)

1: -0.557; 2: -2.23
